Assay explanation: Cell Viability - LYMP2-017 (AID 972);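 note: cells exposed to compound for 24 hours at 37 °C; nearly all actives have a fitted effect of over 55% in size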
Condition set: LYMP2-017 lymphoblastoid cell viability; series mostly up to 92.2 µM
Records with an inconclusive call do not appear. Active and inactive are the calls of the source. Calls come from the whole dose curve; as a rule, active = well fitted cell-killing curve with a large enough effect; inconclusive = small, poorly fitted or top-dose-only effect; inactive = flat fitted curve, though single readings scatter.
Possible outcomes: y for active, n for inactive

>>> print(df.to_string())
                                    compound  label_value
 0                             c1ccc2occc2c1            n
 1          Cc1cc(C(C)(C)C)c(O)c(C(C)(C)C)c1            n
 2                        OCc1c[nH]c2ccccc12            n
 3   C1=CC2C3C=CC(C3)C2C1 (stereo not given)            n
 4                           O=C(NO)c1ccccc1            n
 5               CC(C)C(C)(C)C(C)(C)C(C)(C)S            n
 6                              Cc1ccc(O)cc1            n
 7               CCCCCCCCCCCCCCCC[n+]1ccccc1            y
 8  CCCCC(CC)COC(=O)c1ccccc1C(=O)O (stereo not given)            n
 9                     O=C(c1ccccc1)c1ccccc1            n
10                              Nc1ccc(O)cc1            y
11                     Nc1c2ccccc2nc2ccccc12            y
12  CC(=O)OC/C=C(C)/C=C/C=C(C)/C=C/C1=C(C)CCCC1(C)C            y
13                       Brc1ccccc1-c1ccccc1            n
14                                 Oc1ccccc1            n

* * *

Parameter: Potency. Scope: all listed entries.
Tested on: DIV30
Assay explanation: qHTS profiling for inhibitors of Plasmodium falciparum proliferation (AID 504749); note: potency is the fitted concentration of half-maximal effect; nearly all actives have a fitted effect of over 60% in size
Condition set: P. falciparum in erythrocytes, SYBR Green DNA, 72 h; series mostly up to 28.7 µM
Records with an inconclusive call do not appear. Active and inactive are the calls of the source. Calls come from the whole dose curve; as a rule, active = well fitted inhibition curve with a large enough effect; inconclusive = small, poorly fitted or top-dose-only effect; inactive = flat fitted curve, though single readings scatter.
Measured attribute: Potency

>>> df
                                   compound         obs_value
0                     Nc1c2ccccc2nc2ccccc12  15.1 µM (active)
1                 CCCCCCCCCCCCCC[N+](C)(C)C  6.75 µM (active)
2               CCCCCCCCCCCCCCCC[n+]1ccccc1  13.5 µM (active)
3  CC(NCCC(c1ccccc1)c1ccccc1)c1ccccc1 (stereo not given)  8.49 µM (active)
4       O=C(Nc1ccc(Cl)cc1)Nc1ccc(Cl)c(Cl)c1  1.69 µM (active)

* * *

System: OV90
Assay explanation: Primary qHTS to identify gynecologic anti-cancer compounds using libraries of approved drugs and bioactive compounds (AID 1345084); note: nearly all actives have a fitted effect of over 55% in size
Condition set: Gynecologic cancer cell panel viability, ATPlite luminescence, 48 h; series mostly up to 57.5 µM
Excerpt: National Center for Advancing Translational Sciences [NCATS] Assay Overview: Chemotherapeutic drug responses vary from cancer to cancer and from patient to patient. […] ATPlite is a luminescence based assay reliant on the conversion of a luciferase substrate to light in the presence of ATP. As a cytotoxic compound will suppress growth and decrease the number of cells, the concentration of ATP will decrease, and less light signal will be detected in the well. […]
Inconclusive results are not listed. The source made the active and inactive calls. Calls follow the shape of the dose curve; as a rule, active = well fitted cell-killing curve with a large enough effect; inconclusive = small, poorly fitted or top-dose-only effect, or effect the other way; inactive = flat fitted curve, though single readings scatter.
Outcomes: true for active, false for inactive

In [3]: df
Out[3]:
                                    compound  label_value
 0                      CN1N=C(C(N)=O)CCC1=O        false
 1  O=C1CC2(CCCC2)CC(=O)N1CCNCC1COc2ccccc2O1 (configuration not stated)        false
 2                      Cc1c(N)cccc1C(F)(F)F        false
 3            O=C(O)Cc1ccccc1Oc1ccc(Cl)cc1Cl        false
 4         Fc1ccc(C(c2ccc(F)cc2)N2CCNCC2)cc1        false
 5                         Cc1coc2ccccc2c1=O        false
 6  CC[C@@]1(O)C(=O)OCc2c1cc1n(c2=O)Cc2c-1nc1ccccc1c2/C=N/OC(C)(C)C         true
 7                    CC(C)(C)c1ccc(O)c(O)c1         true
 8                   CCc1cccc2c(CCO)c[nH]c12        false
 9  COC(=O)[C@H]1[C@H]2C[C@@H]3c4[nH]c5cc(OC)ccc5c4CCN3C[C@H]2C[C@@H](OC(=O)/C=C/c2ccc(O)c(OC)c2)[C@@H]1OC         true
10  Cc1c(F)cc2c(=O)c(C(=O)O)cn3c2c1CCC3C (configuration not stated)        false
11  CC(COc1ccccc1)NN (configuration not stated)        false

* * *

Test system: Tov-21-G
Assay explanation: Primary qHTS to identify gynecologic anti-cancer compounds using libraries of approved drugs and bioactive compounds (AID 1345084); note: nearly all actives have a fitted effect of over 55% in size
Condition set: Gynecologic cancer cell panel viability, ATPlite luminescence, 48 h; series mostly up to 57.5 µM
Results filed as inconclusive are left out. The source made the active and inactive calls. Calls follow the shape of the dose curve; as a rule, active = well fitted cell-killing curve with a large enough effect; inconclusive = small, poorly fitted or top-dose-only effect, or effect the other way; inactive = flat fitted curve, though single readings scatter. Where a SMILES comes first, the peptide text is derived from it. [ ]: non-standard residue; d: D form. pGlu = O=C1CC[C@@H](C(=O)O)N1
Outcomes: active, inactive

Compound	Label value
Nc1nc2ccccc2n1Cc1ccc(F)cc1	inactive
NC(=O)NC1N=C([O][Al])NC1=O (centres undefined)	inactive
O=C(CCCCC(=O)Nc1c(I)cc(I)c(C(=O)O)c1I)Nc1c(I)cc(I)c(C(=O)O)c1I	inactive
COC(=O)c1ccc(NC(C)=O)cc1OC	inactive
CC(Oc1c(Cl)cccc1Cl)C1=NCCN1 (centres undefined)	inactive
CCNC(=O)[C@@H]1CCCN1C(=O)[C@H](CCCN=C(N)N)NC(=O)[C@H](CC(C)C)NC(=O)CNC(=O)[C@H](Cc1ccc(O)cc1)NC(=O)[C@H](CO)NC(=O)[C@H](Cc1c[nH]c2ccccc12)NC(=O)[C@H](Cc1cnc[nH]1)NC(=O)[C@@H]1CCC(=O)N1 ([pGlu]HWSYGLRP-NHEt)	inactive
CC[C@@]1(O)C(=O)OCc2c1cc1n(c2=O)Cc2c-1nc1ccccc1c2/C=N/OC(C)(C)C	active
CC[N+]1(CC)CCC(=C(c2ccccc2)c2ccccc2)C1C (centres undefined)	inactive
COC(=O)c1cc(Cl)ccc1OC	inactive

* * *

Assay explanation: Drug repurposing screens with cells derived from glioblastoma tumor samples (AID 1345199); note: % is set by controls: 0 for no effect and ±100 for the full control effect; nearly all actives have a fitted effect of over 40% in size
Condition set: GBM patient neurospheres viability, ATP luminescence, 48 h; at 45.9 µM (top of the series); tumour line D
Inconclusive results are not listed.
Here the recorded activity, negative = cell killing is given for each entry.
Measured attribute: activity, negative = cell killing (%)

                                    compound  obs_value
 0  O=P(O)(O)OCC(O)CO (configuration not stated)       5.18
 1                O=C(O)/C=C(\CC(=O)O)C(=O)O        -18
 2  O=C(COCCOCCOCC(=O)Nc1c(I)cc(I)c(C(=O)O)c1I)Nc1c(I)cc(I)c(C(=O)O)c1I      -4.14
 3  CN1C(=O)CC(C)(c2ccccc2)C1=O (configuration not stated)      0.352
 4  COc1cc(C(=O)OC(COCCC(C)C)CN2CCOCC2)cc(OC)c1OC (configuration not stated)      -4.84
 5      CCN(CC)CCNC(=O)c1ccc(NS(C)(=O)=O)cc1      -14.7
 6                                 Oc1ccccc1      -14.6
 7                              OCCCc1ccccc1      -9.24
 8  O=C(O)CNC(=O)CNC(=O)CNC(=O)CSC(=O)c1ccccc1       -4.9
 9  O=C(O)c1[nH]n(-c2ccc(S(=O)(=O)O)cc2)c(=O)c1N=Nc1ccc(S(=O)(=O)O)cc1      -22.4
10         N[C@@H](Cc1cc(I)c(O)c(I)c1)C(=O)O       2.54
11  CCOC(=O)Cn1cccc1-c1nc(-c2ccc(OC)cc2)c(-c2ccc(OC)cc2)s1      -21.7

* * *

Tested on: Es-2
Assay explanation: Primary qHTS to identify gynecologic anti-cancer compounds using libraries of approved drugs and bioactive compounds (AID 1345084); note: nearly all actives have a fitted effect of over 55% in size
Condition set: Gynecologic cancer cell panel viability, ATPlite luminescence, 48 h; series mostly up to 57.5 µM
Results filed as inconclusive are left out. Activity calls are given as the source filed them. Calls follow the shape of the dose curve; as a rule, active = well fitted cell-killing curve with a large enough effect; inconclusive = small, poorly fitted or top-dose-only effect, or effect the other way; inactive = flat fitted curve, though single readings scatter. Where a SMILES comes first, the peptide text is derived from it. [ ]: non-standard residue; d: D form. pGlu = O=C1CC[C@@H](C(=O)O)N1
Possible outcomes: active, inactive

Compound	Label value
CCNC(=O)[C@@H]1CCCN1C(=O)[C@H](CCCN=C(N)N)NC(=O)[C@H](CC(C)C)NC(=O)CNC(=O)[C@H](Cc1ccc(O)cc1)NC(=O)[C@H](CO)NC(=O)[C@H](Cc1c[nH]c2ccccc12)NC(=O)[C@H](Cc1cnc[nH]1)NC(=O)[C@@H]1CCC(=O)N1 ([pGlu]HWSYGLRP-NHEt)	inactive
CC1CCCCN1CCCOC(=O)c1ccc(OC2CCCCC2)cc1 (stereo not drawn)	inactive
CC(C)NC(=O)c1ccc(C=O)cc1	inactive
Cc1cc(OCCOCC[N+](C)(C)Cc2ccccc2)ccc1C(C)(C)CC(C)(C)C	inactive
CC(C)N(CCC(=O)c1ccc2ccccc2c1)Cc1ccccc1	inactive
CN(CC1(C)CCCO1)S(=O)(=O)c1ccc(Cl)c(S(N)(=O)=O)c1 (stereo not drawn)	inactive
O=C(CCCl)NCc1ccccc1	inactive
Nc1c[n+](N2CCOCC2)no1	inactive
CC(=O)OCC(=O)[C@@]1(O)[C@H](OC(C)=O)C[C@H]2[C@@H]3CCC4=CC(=O)C=C[C@]4(C)[C@@]3(F)[C@@H](O)C[C@@]21C	inactive
CSCC[C@H](NC(=O)[C@H](Cc1c[nH]c2ccccc12)NC(=O)CCNC(=O)OC(C)(C)C)C(=O)N[C@@H](CC(=O)O)C(=O)N[C@@H](Cc1ccccc1)C(N)=O	inactive
O=[N+]([O-])c1nccn1CO[C@@H](CO)[C@H](O)CO	inactive
OCc1cccnc1	inactive
CCCc1c2oc(C(=O)O)cc(=O)c2cc2c(=O)cc(C(=O)O)n(CC)c12	inactive
CCCCN(CCN(CCCC)C(=O)N1CCOCC1)C(=O)N1CCOCC1	inactive
Cc1cc(O)c(C)c(C)c1O	inactive
CN1CC[C@H](c2c(O)cc(O)c3c(=O)cc(-c4ccccc4Cl)oc23)[C@H](O)C1	active
O=C(CCOCCOCCOCCOCCC(=O)Nc1c(I)cc(I)c(C(=O)O)c1I)Nc1c(I)cc(I)c(C(=O)O)c1I	inactive
CCOC(=O)CN1CCCC1=O	inactive
CC(NC(CCc1ccccc1)C(=O)O)C(=O)N1C(=O)N(C)CC1C(=O)O (stereo not drawn)	inactive
CCc1cc(S(=O)(=O)O)c2cc(C(C)C)cccc1-2	inactive
Brc1ccccc1-c1ccccc1	inactive
Cc1[nH]cnc1-c1ccc(Cl)cc1	inactive
Brc1ccc([C@H]2CN3CCSC3=N2)cc1	inactive
CCOC(=O)N1CCC(n2c(=O)[nH]c3cc(Cl)ccc32)CC1	inactive
O=C(CCCl)NCCc1ccccc1	inactive
O=C1CC2(CCCC2)CC(=O)N1	inactive
COc1ccc2cc(C=O)ccc2c1	inactive
C[C@@H]1CCC[C@H](C)N1CCCC(O)(c1ccccc1)c1ccccn1 (stereo partly drawn)	inactive
CC(=O)[C@H]1CC[C@H]2[C@@H]3C=CC4=CC(=O)CC[C@@]4(C)[C@@H]3CC[C@]12C	inactive
Clc1ccc2c(c1)Nc1ccccc1S2	inactive
CC(C)=CCC/C(C)=C/CC/C(C)=C/CCC(=O)OC/C=C(\C)CCC=C(C)C	inactive
C[N+]1(CC2COC(c3ccccc3)(c3ccccc3)O2)CCCCC1 (stereo not drawn)	inactive
CCCCC(=O)OCC(=O)[C@H]1[C@H](C)C[C@H]2[C@@H]3C[C@H](F)C4=CC(=O)C=C[C@]4(C)[C@@]3(F)[C@@H](O)C[C@@]21C	inactive
CCCC(=O)c1cc(O)c(O)cc1O	inactive
CC(=O)N(CC(=O)N(C)C)c1ccccc1	inactive
CC(C)OC(=O)c1cc2c(OCC(O)CNC(C)(C)C)cccc2[nH]1 (stereo not drawn)	inactive
CC(=O)OC[C@H]1O[C@@H](OC(C)=O)[C@H](OC(C)=O)[C@@H]1OC(C)=O	inactive
Cc1ccc(CCn2c3c(c4cc(Cl)ccc42)CN(C)CC3)cn1	inactive
COc1ccc2nc(SCc3ncc(C)c(OC)c3C)[nH]c2c1	inactive
COc1cc2c(cc1OC)CN(C(=O)[C@H](C)N[C@@H](CCc1ccccc1)C(=O)O)[C@H](C(=O)O)C2	inactive
C/C(=N/NC(=O)c1ccncc1)C(=O)O	inactive
c1ccc2c(c1)CCc1ccccc1N2	inactive
O=C(CCC1CCN(Cc2ccccc2)CC1)c1ccc2c(c1)NCCCC2	inactive
